All values here come from paper PMC10855902.

Listing: Kd of selected binders
Target: T1, Recombinant human EGFR protein (Active) (ab155639) (human, UniProt P00533 25-645, labelled with RED-tris-NTA 2nd Generation dye)
T1 construct: epidermal growth factor receptor (EGFR, ErbB-1), human, recombinant; also called EGF receptor; ErbB-1; source: bought: Abcam (ab155639), recombinant
Assay: MST; RED-tris-NTA-labelled EGFR 25 nM, ligand in a 16-step 1:1 dilution series in PBS-T, 30 min at room temperature; assay concentration of the ligand 2.5 mM
Conditions: both partners purified
Value expressed in µM; do not type the unit.

binder	Kd, µM
HDGYCL (EGF, human, residues 10-15; numbers count on: the mature protein; also called 10–15 EGF fragment; source: synthetic peptide (SPPS, Fmoc; crude, without preparative HPLC)) [EGF fragment 10–15 (HDGYCL)]	431

Prompt line: Supply measured Kd of IGERCQ (EGF, human, residues 38-43; numbers count on: the mature protein; source: synthetic peptide (SPPS, Fmoc; crude, without preparative HPLC)) [EGF fragment 38–43 (IGERCQ)] in your reply.
Response line: 0.108
